Molecular target: HRgpA-6H (Porphyromonas gingivalis) (UniProt P28784)
Assay: ELISA, coated HRgpA-6H
Experimental endpoint: OD450 nm

Binder: KB001 mouse Fab VH D58S (Fab, V domains shown) VH: EVQLKQSGPGLVAPSQSLSITCTVSGFSLSIYSVHWVRQPPGKGLEWLGMIWGGGSSSYNSALKSRLSISKDNSKSQVFLKMNSLQTDDTAMYYCARNGNFYAMDYWGQGTSVTVSS VL: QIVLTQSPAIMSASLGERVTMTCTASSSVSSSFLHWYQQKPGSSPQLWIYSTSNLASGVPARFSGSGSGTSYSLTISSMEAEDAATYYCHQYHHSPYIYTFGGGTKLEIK
OD450 nm: 0.646

Attention now turns to another entry.
# query: OD450 nm of entry KB001 mouse Fab VL S26T (Fab, V domains shown) VH: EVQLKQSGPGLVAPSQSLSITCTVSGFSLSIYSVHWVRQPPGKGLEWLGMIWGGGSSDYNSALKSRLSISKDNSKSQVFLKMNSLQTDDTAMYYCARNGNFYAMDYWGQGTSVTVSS VL: QIVLTQSPAIMSASLGERVTMTCTATSSVSSSFLHWYQQKPGSSPQLWIYSTSNLASGVPARFSGSGSGTSYSLTISSMEAEDAATYYCHQYHHSPYIYTFGGGTKLEIK
0.761
